Target: POLRMT;TFB2M (human;human, UniProt O00411;Q9H5Q4 43-1230;21-396, |)
Sequence (O00411 43-1230, chain 1 of 2): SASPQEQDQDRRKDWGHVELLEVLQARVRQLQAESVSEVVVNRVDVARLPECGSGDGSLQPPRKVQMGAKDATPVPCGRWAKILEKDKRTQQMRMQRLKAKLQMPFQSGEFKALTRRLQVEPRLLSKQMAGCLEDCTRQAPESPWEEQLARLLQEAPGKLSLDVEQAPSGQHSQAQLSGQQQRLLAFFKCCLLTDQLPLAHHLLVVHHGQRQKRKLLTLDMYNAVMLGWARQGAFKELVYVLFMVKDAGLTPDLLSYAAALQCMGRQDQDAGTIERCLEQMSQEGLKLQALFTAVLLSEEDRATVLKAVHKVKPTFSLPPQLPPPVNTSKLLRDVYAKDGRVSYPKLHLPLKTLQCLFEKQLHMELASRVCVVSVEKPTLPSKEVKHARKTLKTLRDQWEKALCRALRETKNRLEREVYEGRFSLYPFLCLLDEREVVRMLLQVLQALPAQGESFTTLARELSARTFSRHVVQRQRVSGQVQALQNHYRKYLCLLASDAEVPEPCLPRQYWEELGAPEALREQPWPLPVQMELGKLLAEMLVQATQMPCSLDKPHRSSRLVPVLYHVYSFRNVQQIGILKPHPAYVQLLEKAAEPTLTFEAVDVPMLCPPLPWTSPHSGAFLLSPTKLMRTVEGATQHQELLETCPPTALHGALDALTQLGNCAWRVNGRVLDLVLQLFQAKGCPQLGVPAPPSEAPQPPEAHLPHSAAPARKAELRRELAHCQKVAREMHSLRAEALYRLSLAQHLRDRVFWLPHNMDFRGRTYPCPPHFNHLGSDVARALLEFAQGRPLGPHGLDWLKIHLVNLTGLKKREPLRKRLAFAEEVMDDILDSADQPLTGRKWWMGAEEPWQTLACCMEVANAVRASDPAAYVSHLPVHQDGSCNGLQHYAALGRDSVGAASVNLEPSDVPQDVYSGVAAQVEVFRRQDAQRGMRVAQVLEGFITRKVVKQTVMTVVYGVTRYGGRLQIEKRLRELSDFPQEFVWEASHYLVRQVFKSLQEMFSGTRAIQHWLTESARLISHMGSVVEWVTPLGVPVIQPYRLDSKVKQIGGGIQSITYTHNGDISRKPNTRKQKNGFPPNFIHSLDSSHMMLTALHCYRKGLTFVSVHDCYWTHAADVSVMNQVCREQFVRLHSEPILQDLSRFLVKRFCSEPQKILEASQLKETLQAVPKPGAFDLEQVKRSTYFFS
Sequence (Q9H5Q4 21-396, chain 2 of 2): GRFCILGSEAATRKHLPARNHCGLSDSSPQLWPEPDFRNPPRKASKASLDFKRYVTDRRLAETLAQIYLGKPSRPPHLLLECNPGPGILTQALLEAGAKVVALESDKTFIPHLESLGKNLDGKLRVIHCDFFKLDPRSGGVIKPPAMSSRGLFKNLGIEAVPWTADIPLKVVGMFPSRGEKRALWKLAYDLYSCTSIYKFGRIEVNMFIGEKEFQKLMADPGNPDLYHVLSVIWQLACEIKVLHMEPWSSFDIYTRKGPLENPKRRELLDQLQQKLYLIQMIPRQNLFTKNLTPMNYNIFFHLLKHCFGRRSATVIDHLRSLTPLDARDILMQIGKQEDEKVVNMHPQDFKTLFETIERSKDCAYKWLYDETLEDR
Test: fluorescence anisotropy
measured property: Kd (nM)
Write down the numeric answer in nM and omit the unit.

Task: Endpoint output: Kd of LSP -41 to -12 upstream fragment (dsDNA) DNA 1: TGTGTTAGTTGGGGGGTGACTGTTAAAAGT DNA 2: ACTTTTAACAGTCACCCCCCAACTAACACA . Value?
Output: 5
